Reference source for all entries: patent US7365211B2

Please go through the items and note down their melting point.

Some compounds with recorded melting point:
- compound: "CC(=O)N(C)Cc1c2cccc(-c3ccc(Cl)cc3Cl)c2nn1C.Cl"
  data-value: "146.2 to 147.8 °C"
- compound: "Cl.Cn1cc2cccc(-c3ccc(Cl)cc3Cl)c2n1"
  data-value: "133 to 147 °C"
- compound: "C#Cc1c2cccc(-c3ccc(Cl)cc3Cl)c2nn1C [A20]"
  data-value: "129.9 to 130.9 °C"
- compound: "CC(=O)OCc1c2cccc(-c3ccc(Cl)cc3Cl)c2nn1C [E5]"
  data-value: "131.7 to 135.2 °C"
- compound: "Cn1nc2c(-c3ccc(Cl)cc3Cl)cccc2c1COC(N)=O"
  data-value: "184 to 185.5 °C"
- compound: "COC(=O)NCc1c2cccc(-c3ccc(Cl)cc3Cl)c2nn1C.Cl"
  data-value: "146.3 to 148.6 °C"
- compound: "Cn1nc2c(-c3ccc(Cl)cc3Cl)cccc2c1C#N [A29]"
  data-value: "137 to 139 °C"
- compound: "Cc1cc(C)c(-c2cccc3cn(C)nc23)c(C)c1 [A5]"
  data-value: "180 to 182 °C"
- compound: "CCCN(CCC)c1c2cccc(-c3ccc(Cl)cc3Cl)c2nn1C.Cl"
  data-value: "139 to 140 °C"
- compound: "Cl.Cn1cc2ccnc(-c3ccc(Cl)cc3Cl)c2n1"
  data-value: "190.9 to 195.5 °C"

Give melting point for each listed item.
1. CN(C)C(=O)NCc1c2cccc(-c3ccc(Cl)cc3Cl)c2nn1C [C13]
2. COCc1c2cccc(-c3ccc(Cl)cc3Cl)c2nn1C [E3]
3. CN(C)C(=O)OCc1c2cccc(-c3ccc(Cl)cc3Cl)c2nn1C [E6]
4. Cn1nc2c(-c3ncc(Cl)cc3Cl)cccc2c1Br [A32]
5. Cn1cc2nccc(-c3ccc(Cl)cc3Cl)c2n1 [A35]

Output:
["101.9 to 105.1 °C", "119 to 120.9 °C", "125.2 to 128 °C", "154.5 to 156.2 °C", "160.5 to 162.8 °C"]
